- Test system: RXF 393 renal
- protocol.text: NCI tumour cell line growth inhibition, 48 h
property.label: TGI

Some solved cases for reference:
>>> result("O=c1[nH]nc(Cc2ccc(Cl)cc2)n1O")
"> 100 µM"
>>> result("Cc1nn(C(=O)c2ccccc2O)c2c1C(c1ccccc1)SC(N)=N2 (centres undefined)")
"> 10 µM"
>>> result("CC(=O)NC(CCCCNC(=O)OCc1ccccc1)C(=O)NCc1ccccc1 (centres undefined)")
"> 100 µM"

Let's switch to this molecule now.
Req: # query: TGI of entry COc1ccc(-c2c(C#N)c(-c3ccccc3)n(NS(=O)(=O)c3ccccc3)c(=O)c2C#N)cc1
Resp: > 100 µM

* * *

- Tested on: CCRF-CEM leukemia
- protocol.text: NCI tumour cell line growth inhibition, 48 h
property.label: TGI

Req: # query: TGI of entry CC(=O)O[C@H]1C(N(C)C(=O)c2ccccc2)CC[C@]2(C)C3CC[C@@]4(C)C(CC(O)[C@@H]4C(C)N(C)C)[C@@H]3CCC12 (stereo partly drawn)
Resp: > 100 µM

Req: # query: TGI of entry CCOC(=O)c1cn(-c2ccc(Cl)cc2)c(=O)n2c1nc1ccccc12
Resp: > 100 µM

Req: # query: TGI of entry COC(=O)c1cncc2c1CC1C3(C(=O)OC)C=NC(C4C(CO)=CCC43)C21C (stereo not drawn)
Resp: > 100 µM

* * *

Quick reference: GI50 of the listed items.
- Test system: HT29 colon
- protocol.text: NCI tumour cell line growth inhibition, 48 h

Req: # query: GI50 of entry Cc1cc(/C=C2\SC(=Nc3ccccc3)N(C3CCCC3)C2=O)c(C)n1-c1ccc(Cl)cc1
Resp: > 100 µM

Req: # query: GI50 of entry COc1cc2c(cc1C)NC(=O)/C2=C\c1cc(OC)c(OC)c(OC)c1
Resp: > 100 µM

Req: # query: GI50 of entry Nc1c(C(=O)c2ccccc2)sc2nc(-c3cccs3)ccc12
Resp: 0.365 µM

* * *

- Test system: CAKI-1 renal
- protocol.text: NCI tumour cell line growth inhibition, 48 h
property.label: GI50

>>> result("COc1ccc2c(c1)sc1nc(-c3ccccc3)c(-c3ccsc3)n12")
"5.04 µM"
>>> result("COC(=O)CCC/C=C\\C[C@H]1C=CC(=O)/C1=C/C[C@@H](O)CCc1cccc(C(F)(F)F)c1")
"3.89 µM"

Req: # query: GI50 of entry CCOc1ccc(/C=C/C(=O)c2ccccc2)cc1
Resp: 14.1 µM

* * *

- Tested on: MDA-MB-435
- protocol.text: NCI tumour cell line growth inhibition, 48 h
property.label: TGI

>>> result("O=C1[C@@H]2Cc3c([nH]c4ccccc34)C(C3CCCCC3)N2C(=O)[C@@H]2CCCN12 (stereo partly drawn)")
"> 100 µM"
>>> result("COC(=O)[C@@H]1N2C(=S)N(c3ccccc3)C(=O)[C@H]2SC1(C)C")
"> 100 µM"

Let's switch to this compound now.
Req: # query: TGI of entry Cc1cc(/C=C2\SC(=Nc3ccccc3)N(C3CCCC3)C2=O)c(C)n1-c1ccc(Cl)cc1
Resp: > 100 µM

* * *

- System: EKVX NSCLC
- protocol.text: NCI tumour cell line growth inhibition, 48 h
Quick reference: TGI of the listed items.

Some solved cases for reference:
>>> result("Cc1nc(N)sc1C(=O)/C=C/c1ccc(/C=C/C(=O)c2sc(NC(=O)CCCCCCCCC(=O)Nc3nc(C)c(C(=O)/C=C/c4ccc(/C=C/C(=O)c5sc(N)nc5C)cc4)s3)nc2C)cc1")
"> 100 µM"
>>> result("CC1=C2C(O)C(C(C)CO)C(O)CC2(C)C(O)CC1 (stereo not drawn)")
"> 100 µM"
>>> result("CC(C)c1ccc(Cc2cnc(NC(=O)c3cc(Br)cs3)s2)cc1")
"> 100 µM"
>>> result("CCOC(=O)C(O)(NC(C)=O)C(F)(F)F (stereo not drawn)")
"> 100 µM"
>>> result("COc1ccc(OC)c2cc(Cc3ccc(N(C)C)cc3)c(=O)c(Cc3ccc(N(C)C)cc3)cc12")
"> 100 µM"

Req: # query: TGI of entry CC1(C)C2CC(c3ccncc3)ON2C(C)(C)N1O (stereo not drawn)
Resp: > 100 µM

Req: # query: TGI of entry NC(N)=N/N=C(/c1nc2ccc([N+](=O)[O-])cc2[nH]c1=O)C(O)c1ccco1 (stereo not drawn)
Resp: > 100 µM

Req: # query: TGI of entry CC(=O)NC(CCCCNC(=O)OCc1ccccc1)C(=O)NCc1ccccc1 (stereo not drawn)
Resp: > 100 µM

Req: # query: TGI of entry COC1/C=C/C(C)C(C(C)C(OC)C(C)CCC(=O)C(C)C(CCC(=O)O)OC)OC(=O)/C=C/C=C(\C)CC(OC)CC2=CC(=O)O[C@@H](C(C)C(OC)CC(OC)/C=C/C(C)C(OC)C1)[C@H]2O (stereo partly drawn)
Resp: > 5 µM

Req: # query: TGI of entry COC(=O)c1c(-c2ccccc2)cc2c3cc(-c4ccccc4)c(C(=O)OC)n3c3ccccc3n12
Resp: > 100 µM

Req: # query: TGI of entry CCCCCCNC(=O)C1=C(C)NC(C)=C(C(=O)NCCCCCC)C1
Resp: > 100 µM

Req: # query: TGI of entry CC(C)n1c(=O)n(-c2ccccc2)n(C(C)(C)C)c1=O
Resp: > 100 µM

Req: # query: TGI of entry O=[N+]([O-])c1ccc2[nH]cc(-c3c4ccsc4cc4[nH]c5ccc([N+](=O)[O-])cc5c34)c2c1
Resp: 11.4 µM

* * *

- System: COLO 205 colon
- protocol.text: NCI tumour cell line growth inhibition, 48 h; in the data active = GI50 below about 0.43 µM; inactive = the rest
Field 'call' accepts active, inactive

Worked cases, answers included:
>>> label_value("c1ccc2c(c1)[I+]c1ccccc1-2")
"inactive"
>>> label_value("CN(C)CCNc1nc2ccccc2c2c1c1c(n2Cc2ccccc2)-c2ccccc2C1=O")
"inactive"
>>> label_value("COc1cc2nc(-c3ccc(C(F)(F)F)cc3)cc(OCCCN3CCOCC3)c2cc1OC")
"inactive"

Req: Which result was noted for this compound in the test: O=[N+]([O-])c1ccc2[nH]cc(-c3c4ccsc4cc4[nH]c5ccc([N+](=O)[O-])cc5c34)c2c1
Resp: inactive

Req: Which result was noted for this compound in the test: COc1ccc(/C=C/c2cc(OC)c(OC)c(OC)c2)cc1NC(=O)/C=C/c1ccc(F)cc1
Resp: inactive

Req: Which result was noted for this compound in the test: O=C(Nc1ccccc1C(F)(F)F)c1cccc(NC2=C(Cl)C(=O)N(Cc3ccccc3)C2=O)c1
Resp: inactive

* * *

- System: HCT-15 colon
- protocol.text: NCI tumour cell line growth inhibition, 48 h
Quick reference: TGI of the listed items.

>>> result("CCN(CC)CCCNc1ccc2nnn3c4ccc(O)cc4c(=O)c1c23")
"19.4 µM"
>>> result("C=CCNC(=S)N1CC(C)C(=O)Nc2ccccc21 (configuration not stated)")
"> 100 µM"
>>> result("CC1(C)C2CC(c3ccncc3)ON2C(C)(C)N1O (configuration not stated)")
"> 100 µM"
>>> result("O=c1ccn(C2OC(CO)C(O)C2O)c(=O)[nH]1 (configuration not stated)")
"> 1000 µM"
>>> result("Oc1ccc(N=Nc2ccc(Cl)cc2)cc1")
"32.8 µM"

Req: Hello, I am looking for reported TGI with HCT-15 colon for O=C(NCCO)c1ccc(Cl)cc1 . Could you help?
Resp: > 100 µM

Req: Hello, I am looking for reported TGI with HCT-15 colon for S=C(Nc1ccc(-c2nc3ccccc3[nH]2)cc1)NC1CCCCC1 . Could you help?
Resp: 37.9 µM

Req: Hello, I am looking for reported TGI with HCT-15 colon for O=C1[C@@H]2Cc3c([nH]c4ccccc34)C(C3CCCCC3)N2C(=O)[C@@H]2CCCN12 (some centres not stated) . Could you help?
Resp: > 100 µM

Req: Hello, I am looking for reported TGI with HCT-15 colon for C=CCCCCCCCCCCCC1CCC(CC)N1 (configuration not stated) . Could you help?
Resp: 12.9 µM

Req: Hello, I am looking for reported TGI with HCT-15 colon for COC1/C=C/C(C)C(C(C)C(OC)C(C)CCC(=O)C(C)C(CCC(=O)O)OC)OC(=O)/C=C/C=C(\C)CC(OC)CC2=CC(=O)O[C@@H](C(C)C(OC)CC(OC)/C=C/C(C)C(OC)C1)[C@H]2O (some centres not stated) . Could you help?
Resp: > 5 µM

Req: Hello, I am looking for reported TGI with HCT-15 colon for NC(=O)COc1ccccc1 . Could you help?
Resp: > 100 µM

Req: Hello, I am looking for reported TGI with HCT-15 colon for NC(=O)c1c[se]c(C2OC(CO)C(O)C2O)n1 (configuration not stated) . Could you help?
Resp: > 100 µM
